# Tested on: HCT-15
# measurementNotes: Cytotoxicity against human HCT15 cells assessed as age growth inhibition at 100 uM after 48 hrs by sulforhodamine B assay
# Format: functional
# settings: HCT-15, 48 h, read-out: GI
quantityName: inhibition of growth at 100 µM (%)

smilesInput: CC1(C)CCC[C@@]2(C)C1=C[C@H]1C(=O)O[C@H](c3ccc(C#N)cc3)[C@H]12
valueReported: 30

smilesInput: Cc1ccc([C@H]2OC(=O)[C@@H]3C=C4C(C)(C)CCC[C@]4(C)[C@H]23)cc1
valueReported: 55

smilesInput: CC1(C)CCC[C@@]2(C)C1=C[C@H]1C(=O)O[C@H](c3ccco3)[C@H]12
valueReported: 56

smilesInput: CC1(C)CCC[C@@]2(C)C1=C[C@H]1C(=O)O[C@H](c3ccccc3)[C@H]12
valueReported: 56

smilesInput: COc1ccc([C@H]2OC(=O)[C@@H]3C=C4C(C)(C)CCC[C@]4(C)[C@H]23)cc1
valueReported: 55

smilesInput: CC1(C)CCC[C@@]2(C)C1=C[C@H]1C(=O)O[C@H](c3ccc(Br)cc3)[C@H]12
valueReported: 40

smilesInput: CC1(C)CCC[C@@]2(C)C1=C[C@H]1C(=O)O[C@H](c3ccc(F)cc3)[C@H]12
valueReported: 38

smilesInput: CC1(C)CCC[C@@]2(C)C1=C[C@H]1C(=O)O[C@H](c3ccc(Cl)cc3)[C@H]12
valueReported: 30

* * *

# Test system: SF-295
# measurementNotes: Cytotoxicity against human SF295 cells assessed as age growth inhibition at 100 uM after 48 hrs by sulforhodamine B assay
# Type: functional
# settings: SF-295, 48 h, read-out: GI
Classify by measured inhibition of growth at 100 µM: true (1) if it is equal to or exceeds 20%, false (0) if it is smaller.

smilesInput: CC1(C)CCC[C@@]2(C)C1=C[C@H]1C(=O)O[C@H](c3ccccc3)[C@H]12
category: true (1)
//
smilesInput: COc1ccc([C@H]2OC(=O)[C@@H]3C=C4C(C)(C)CCC[C@]4(C)[C@H]23)cc1
category: false (0)
//
smilesInput: Cc1ccc([C@H]2OC(=O)[C@@H]3C=C4C(C)(C)CCC[C@]4(C)[C@H]23)cc1
category: true (1)
//
smilesInput: CC1(C)CCC[C@@]2(C)C1=C[C@H]1C(=O)O[C@H](c3ccc(Cl)cc3)[C@H]12
category: true (1)
//
smilesInput: CC1(C)CCC[C@@]2(C)C1=C[C@H]1C(=O)O[C@H](c3ccco3)[C@H]12
category: true (1)
//
smilesInput: CC1(C)CCC[C@@]2(C)C1=C[C@H]1C(=O)O[C@H](c3ccc(F)cc3)[C@H]12
category: false (0)
//
smilesInput: CC1(C)CCC[C@@]2(C)C1=C[C@H]1C(=O)O[C@H](c3ccc(Br)cc3)[C@H]12
category: true (1)

* * *

# Test system: HCT-15
# measurementNotes: Cytotoxicity against human HCT15 cells assessed as age growth inhibition at 50 uM after 48 hrs by sulforhodamine B assay
# Format: functional
# settings: HCT-15, 48 h, read-out: GI
# reported inhibition of growth at 50 µM; entries follow

smilesInput: CC1(C)CCC[C@@]2(C)C1=C[C@H]1C(=O)O[C@H](c3ccc(Cl)cc3)[C@H]12
inhibition of growth at 50 µM / %: 29
//
smilesInput: CC1(C)CCC[C@@]2(C)C1=C[C@H]1C(=O)O[C@H](c3ccco3)[C@H]12
inhibition of growth at 50 µM / %: 50
//
smilesInput: CC1(C)CCC[C@@]2(C)C1=C[C@H]1C(=O)O[C@H](c3ccc(C#N)cc3)[C@H]12
inhibition of growth at 50 µM / %: 25
//
smilesInput: CC1(C)CCC[C@@]2(C)C1=C[C@H]1C(=O)O[C@H](c3ccccc3)[C@H]12
inhibition of growth at 50 µM / %: 46
//
smilesInput: Cc1ccc([C@H]2OC(=O)[C@@H]3C=C4C(C)(C)CCC[C@]4(C)[C@H]23)cc1
inhibition of growth at 50 µM / %: 44
//
smilesInput: CC1(C)CCC[C@@]2(C)C1=C[C@H]1C(=O)O[C@H](c3ccc(F)cc3)[C@H]12
inhibition of growth at 50 µM / %: 34
//
smilesInput: COc1ccc([C@H]2OC(=O)[C@@H]3C=C4C(C)(C)CCC[C@]4(C)[C@H]23)cc1
inhibition of growth at 50 µM / %: 45
//
smilesInput: CC1(C)CCC[C@@]2(C)C1=C[C@H]1C(=O)O[C@H](c3ccc(Br)cc3)[C@H]12
inhibition of growth at 50 µM / %: 32

* * *

# System: SK-OV-3
# measurementNotes: Cytotoxicity against human SKOV3 cells assessed as age growth inhibition at 10 uM after 48 hrs by sulforhodamine B assay
# Type: functional
# settings: SK-OV-3, 48 h, read-out: GI

smilesInput: CC1(C)CCC[C@@]2(C)C1=C[C@H]1C(=O)O[C@H](c3ccc(C#N)cc3)[C@H]12
inhibition of growth at 10 µM [%]: 17

smilesInput: CC1(C)CCC[C@@]2(C)C1=C[C@H]1C(=O)O[C@H](c3ccc(F)cc3)[C@H]12
inhibition of growth at 10 µM [%]: 6

smilesInput: CC1(C)CCC[C@@]2(C)C1=C[C@H]1C(=O)O[C@H](c3ccc(Cl)cc3)[C@H]12
inhibition of growth at 10 µM [%]: 10

smilesInput: COc1ccc([C@H]2OC(=O)[C@@H]3C=C4C(C)(C)CCC[C@]4(C)[C@H]23)cc1
inhibition of growth at 10 µM [%]: 0

* * *

# Test system: HEp-2
# measurementNotes: Cytotoxicity against human HEP2 cells assessed as age growth inhibition at 100 uM after 48 hrs by sulforhodamine B assay
# Type: functional
# settings: HEp-2, 48 h, read-out: GI
Assign class by inhibition of growth at 100 µM: not lower than 20% means y; lower than 20% means n.

smilesInput: Cc1ccc([C@H]2OC(=O)[C@@H]3C=C4C(C)(C)CCC[C@]4(C)[C@H]23)cc1
category: y
--
smilesInput: CC1(C)CCC[C@@]2(C)C1=C[C@H]1C(=O)O[C@H](c3ccc(Cl)cc3)[C@H]12
category: n
--
smilesInput: COc1ccc([C@H]2OC(=O)[C@@H]3C=C4C(C)(C)CCC[C@]4(C)[C@H]23)cc1
category: y
--
smilesInput: CC1(C)CCC[C@@]2(C)C1=C[C@H]1C(=O)O[C@H](c3ccccc3)[C@H]12
category: y
--
smilesInput: CC1(C)CCC[C@@]2(C)C1=C[C@H]1C(=O)O[C@H](c3ccc(F)cc3)[C@H]12
category: y
--
smilesInput: CC1(C)CCC[C@@]2(C)C1=C[C@H]1C(=O)O[C@H](c3ccc(C#N)cc3)[C@H]12
category: n
--
smilesInput: CC1(C)CCC[C@@]2(C)C1=C[C@H]1C(=O)O[C@H](c3ccc(Br)cc3)[C@H]12
category: y
--
smilesInput: CC1(C)CCC[C@@]2(C)C1=C[C@H]1C(=O)O[C@H](c3ccco3)[C@H]12
category: y

* * *

# Tested on: A549
# measurementNotes: Cytotoxicity against human A549 cells assessed as age growth inhibition at 50 uM after 48 hrs by sulforhodamine B assay
# Format: functional
# settings: A549, 48 h, read-out: GI
Items are presented alongside their recorded inhibition of growth at 50 µM.
quantityName: inhibition of growth at 50 µM

smilesInput: Cc1ccc([C@H]2OC(=O)[C@@H]3C=C4C(C)(C)CCC[C@]4(C)[C@H]23)cc1
quantityName: inhibition of growth at 50 µM
valueReported: 29%

smilesInput: CC1(C)CCC[C@@]2(C)C1=C[C@H]1C(=O)O[C@H](c3ccco3)[C@H]12
quantityName: inhibition of growth at 50 µM
valueReported: 20%

smilesInput: COc1ccc([C@H]2OC(=O)[C@@H]3C=C4C(C)(C)CCC[C@]4(C)[C@H]23)cc1
quantityName: inhibition of growth at 50 µM
valueReported: 31%

smilesInput: CC1(C)CCC[C@@]2(C)C1=C[C@H]1C(=O)O[C@H](c3ccc(Br)cc3)[C@H]12
quantityName: inhibition of growth at 50 µM
valueReported: 10%

smilesInput: CC1(C)CCC[C@@]2(C)C1=C[C@H]1C(=O)O[C@H](c3ccc(C#N)cc3)[C@H]12
quantityName: inhibition of growth at 50 µM
valueReported: 24%

smilesInput: CC1(C)CCC[C@@]2(C)C1=C[C@H]1C(=O)O[C@H](c3ccccc3)[C@H]12
quantityName: inhibition of growth at 50 µM
valueReported: 29%

smilesInput: CC1(C)CCC[C@@]2(C)C1=C[C@H]1C(=O)O[C@H](c3ccc(F)cc3)[C@H]12
quantityName: inhibition of growth at 50 µM
valueReported: 45%

smilesInput: CC1(C)CCC[C@@]2(C)C1=C[C@H]1C(=O)O[C@H](c3ccc(Cl)cc3)[C@H]12
quantityName: inhibition of growth at 50 µM
valueReported: 12%
